Listed below are compounds with Ki for 5-hydroxytryptamine receptor 5A (Homo sapiens, UniProt P47898), each taken from published literature.

N#Cc1ccc2ccc(C(=O)N=C(N)N)cc2c1-c1c(F)cc(F)cc1F    1 to 30 nM

Form: compound = COc1ccccc1CNC(=N)Nc1cc[nH]n1 ; Ki = 50 to 500 nM

Form: compound = N/C(=N\C(=O)c1ccc2c3ccccc3n(C3CCOCC3)c2c1)NCC1CCOCC1 ; Ki = ≤ 50 nM

* * *

Listed below are compounds with Ki for UniProt P47898, each taken from published literature.

Worked examples, 8 compounds total:
NC(N)=NC(=O)c1ccc2c(c1)C(c1c(F)cc(F)cc1F)=CCCC2    3 to 30 nM
COc1ccc(F)cc1CNC(=N)Nc1nc(-c2ccccc2)cs1    50 to 500 nM
COc1cccc(F)c1Cc1cc2cc3c(cc2nc1N)OCO3    < 300 nM
NC(N)=NC(=O)c1ccc2cccc(-c3cc(F)ncc3Cl)c2c1    3 to 30 nM
NC(N)=NC(=O)c1ccc2cccc(-c3cccc(F)c3F)c2c1    0.3 to 3 nM
N#Cc1sccc1-c1cccc2ccc(C(=O)N=C(N)N)cc12    3 to 30 nM
CC(=O)c1cccc(OCCCNC(=N)Nc2nccs2)c1    > 500 nM
NC(N)=NC(=O)c1ccc2cccc(-c3cnccc3Cl)c2c1    0.3 to 3 nM

Recorded Ki for COc1ccccc1Cn1cc(-c2cccc(NS(C)(=O)=O)c2)nc1N on UniProt P47898 was < 600 nM

Recorded Ki for COc1ccccc1CNC(=N)Nc1nc(-c2ccc(OC(F)(F)F)cc2)cs1 on UniProt P47898 was < 50 nM

Recorded Ki for Cn1ncc(Cl)c1-c1cccc2ccc(C(=O)N=C(N)N)cc12 on UniProt P47898 was 3 to 30 nM

* * *

Listed below are compounds with Ki for 5-hydroxytryptamine receptor 5A (Homo sapiens, UniProt P47898), each taken from published literature.

Worked examples, 3 compounds total:
NC(N)=NC(=O)c1ccc2c(c1)C(c1c(F)cc(F)cc1F)=CCS2    0.3 to 3 nM
NC(N)=NC(=O)c1ccc2cccc(-c3ccncc3Cl)c2c1    0.3 to 3 nM
NC(N)=NC(=O)c1ccc2cccc(-c3c(F)cc(CO)cc3F)c2c1    0.3 to 3 nM

Recorded Ki for COc1ccccc1Cn1c(N)nc(-c2ccccc2)c1C on 5-hydroxytryptamine receptor 5A (Homo sapiens, UniProt P47898) was < 600 nM

Recorded Ki for NC(N)=NC(=O)c1ccc2c(c1)C(c1ccccn1)=CCC2 on 5-hydroxytryptamine receptor 5A (Homo sapiens, UniProt P47898) was 30 to 300 nM

Recorded Ki for NC1=Nc2ccccc2CN1Cc1ccccc1OC(F)(F)F on 5-hydroxytryptamine receptor 5A (Homo sapiens, UniProt P47898) was < 300 nM

Recorded Ki for COc1ccc(-c2cn(Cc3c(Cl)cccc3OC)c(N)n2)cc1 on 5-hydroxytryptamine receptor 5A (Homo sapiens, UniProt P47898) was < 600 nM

Recorded Ki for NC(N)=NC(=O)c1ccc2c(c1)C(c1cccc(Cl)c1F)=CCO2 on 5-hydroxytryptamine receptor 5A (Homo sapiens, UniProt P47898) was 0.3 to 3 nM

Recorded Ki for COc1ccccc1CNC(=N)Nc1cccc(C)n1 on 5-hydroxytryptamine receptor 5A (Homo sapiens, UniProt P47898) was < 100 nM

Recorded Ki for COc1cccc(OC)c1CNC(=N)Nc1cc[nH]n1 on 5-hydroxytryptamine receptor 5A (Homo sapiens, UniProt P47898) was < 50 nM
